Assignment: determine reported PBM 8-mer E-score for the given sequences.
Tested on: 2Sp-muMax20 (muMax20 with two 2,6-bis(methyl)pyridine Cys staples)
assay.info: PBM 8-mer E-score (E-score (rank enrichment, -0.5 to 0.5)); higher = stronger preferential binding
In all, about 33,000 sequences were measured (“E-score (rank enrichment, -0.5 to 0.5)”: median about -0.0043, highest 2% from about 0.24 on). Many of the other results were omitted from the sample, so the highest values are more common in it than they were.
One number for each entry.

• ATGCGGTC = -0.0281
• AACTACTA = 0.144

Give measured PBM 8-mer E-score for every item shown.
1. AGATACCC
2. AAGACCCC
3. GACTACTA
4. GACTAGTA

0.264
0.0259
0.12
0.223

Would you be so kind as to report PBM 8-mer E-score for each listed record?
1. TACTAGTA
2. ACGAAGAA

[0.25, 0.16]

For every listed record, write down its PBM 8-mer E-score.
1. GTCTAGTA
2. ATCTACTC
3. TACTACTA

[0.246, -0.0118, 0.247]

---

For each record, write down the corresponding PBM 8-mer E-score.
System: 2Sp-muMax20 (muMax20 with two 2,6-bis(methyl)pyridine Cys staples)
assay.info: PBM 8-mer E-score (E-score (rank enrichment, -0.5 to 0.5)); higher = stronger preferential binding
Over roughly 33,000 sequences, “E-score (rank enrichment, -0.5 to 0.5)” has its median near -0.0043; the highest 2% begin near 0.24. This excerpt belongs to a sample that is enriched for the highest values.
Give bare numbers.

Example sequences with recorded PBM 8-mer E-score:
* AATTATCC | 0.0373
* GATTGATA | 0.115
* GGGAGTTA | 0.245
* GCGGCGTA | 0.0259
* ACACGCGA | 0.211
* ACGCGCGT | 0.397
* CACCAACA | 0.106
* AATTATCT | 0.235
* AAACGCGT | -0.0801
* ACGCGCGC | 0.206

Turning now to a further record.
Form field PBM 8-mer E-score, entry ACACGCGT : 0.272

---

System: 2Sp-muMax20 (muMax20 with two 2,6-bis(methyl)pyridine Cys staples)
assay.info: PBM 8-mer E-score (E-score (rank enrichment, -0.5 to 0.5)); higher = stronger preferential binding
Over roughly 33,000 sequences, “E-score (rank enrichment, -0.5 to 0.5)” has its median near -0.0043; the highest 2% begin near 0.24. What follows is part of a selection rich in the highest values, with near analogues and random picks from the rest.
Assignment: determine reported PBM 8-mer E-score for the given sequences.
One number for each entry.

* ATACGTAT | 0.339

Give PBM 8-mer E-score for each of the items listed below.
1. ATTATGTA
2. GCCAGTAA

[0.252, -0.116]

// for each sequence below, give its PBM 8-mer E-score
1. CTAATGTA
2. AGATTGGG
3. ATAATGTC
4. GCGAAGGA
5. GCTCCGAC
6. ATACGTAC
7. AGATTGGA

[0.0902, 0.236, 0.0928, -0.1, -0.215, 0.185, 0.0807]

// PBM 8-mer E-score lookup, sequence = GACTCAGC , result: -0.176
